The measurements presented in this section are drawn from ChEMBL document CHEMBL1136896.

- Tested on: Medicago sativa
- Experiment Notes: Herbicidal activity against Medicago sativa at 1.5 kg/hectare administered postemergence of first true leaf measured after 10 days
- Assay type: functional
- Conditions: post-emergence, 240 h
Class MET: inhibition at 1500 g/ha at least 5%. Class NOT MET: inhibition at 1500 g/ha below 5%.

Sample answers from the record:
Could you verify whether the entry CCOCCOC(=O)c1c(CC)nn(-c2ccc([N+](=O)[O-])cc2)c1N shows inhibition at 1500 g/ha of no less than 5%?
NOT MET

Lookup CCOCCOC(=O)c1c(C(C)C)nn(-c2ccc(C)cc2)c1N
MET

Same read-out for CCOCCOC(=O)c1c(C(C)C)nn(-c2ccc(Cl)cc2Cl)c1N ?
MET

Now the compound CCOCCOC(=O)c1c(C(C)C)nn(-c2ccc([N+](=O)[O-])cc2)c1N
NOT MET

Param item: CCOCCOC(=O)c1c(CC)nn(-c2ccccc2)c1N
NOT MET

Try CCOCCOC(=O)c1c(SC)nn(-c2ccc(Cl)cc2Cl)c1N next.
NOT MET

Try the compound CCOCCOC(=O)c1c(C(C)C)nn(-c2ccccc2)c1N
NOT MET

Please answer likewise for CCOCCOC(=O)/C(C#N)=C(/CC)NNc1cc(Cl)c(Cl)cc1Cl
NOT MET

---
Kindly determine if inhibition at 1500 g/ha recorded for CCOCCOC(=O)c1c(SC)nn(-c2ccccc2)c1N is above or exactly 5%.
MET

Quick one: CCOCCOC(=O)/C(C#N)=C(\NNc1ccc(Cl)cc1Cl)C(C)C
MET

====

Below, each of the molecules is paired with its reported inhibition at 1500 g/ha value.
- System: Brassica napus
- Experiment Notes: Herbicidal activity against Brassica napus L. at 1.5 kg/hectare administered preemergence of first true leaf measured after 10 days
- Assay type: functional
- Conditions: pre-emergence, 240 h
Numbers only; they are read as %.

Use the examples below as a reference point.
Fill in the blank: the reported inhibition at 1500 g/ha of CCOCCOC(=O)c1c(C(C)C)nn(-c2ccc(C)cc2)c1N is ____.
15

Proceed to CCOCCOC(=O)/C(C#N)=C(\NNc1ccc(Cl)cc1Cl)C(C)C
0

Param item: CCOCCOC(=O)c1c(SC)nn(-c2ccccc2)c1N
0

What do you get for CCOCCOC(=O)c1c(C(C)C)nn(-c2ccc([N+](=O)[O-])cc2)c1N ?
0

Now consider CCOCCOC(=O)/C(C#N)=C(\NNc1c(Cl)cccc1Cl)C(C)C and answer again.
9.9

Then this molecule:
Sample CCOCCOC(=O)c1c(SC)nn(-c2ccc(Cl)cc2)c1N — what was its inhibition at 1500 g/ha?
0

====

- Tested on: Bel-7402
- Experiment Notes: Antitumor activity against human Bel7402 cells at 10 uM/L after 72 hrs by MTT assay
- Format: functional
- Conditions: Bel-7402, 72 h
Endpoint Label: inhibition at 10 µM

Check out these entries, answers already filled in.
Request the reported inhibition at 10 µM associated with CCOCCOC(=O)/C(C#N)=C(\NNc1cccc(Cl)c1Cl)C(C)C
15.1%

Subsequent entry: CCOCCOC(=O)c1c(C(C)C)nn(-c2ccc(Cl)cc2Cl)c1N
0%

And what about the compound CCOCCOC(=O)c1c(SC)nn(-c2ccc(C)cc2C)c1N ?
0%

Similarly, CCOCCOC(=O)c1c(SC)nn(-c2ccc(Cl)cc2Cl)c1N ?
0%

Please do the same for CCOCCOC(=O)/C(C#N)=C(\NNc1cc(Cl)c(Cl)cc1Cl)C(C)C as well.
0%

Now consider a different compound.
Which inhibition at 10 µM reading was recorded for the compound CCOCCOC(=O)/C(C#N)=C(/CC)NNc1cccc(Cl)c1Cl ?
12.1%

====

- Test system: Cladosporium cucumerinum
- Experiment Notes: Fungicidal activity against Cladosporium cucumerinum assessed as inhibition of mycelium growth at 50 mg/L after 72 hrs
- Type: functional
Assign true (1) whenever inhibition at 50 µg/mL does not fall below 20%; assign false (0) whenever it does.

The following compounds have reported results that may help.
Check the entry CCOCCOC(=O)c1c(C(C)C)nn(-c2ccc(Cl)cc2)c1N : does inhibition at 50 µg/mL equal or exceed 20%?
true (1)

Repeat for the following compound: CCOCCOC(=O)c1c(CC)nn(-c2ccccc2)c1N
false (0)

New cases:
Please check the record CCOCCOC(=O)/C(C#N)=C(/CC)NNc1c(Cl)cccc1Cl and state if its inhibition at 50 µg/mL is at or above 20%.
false (0)

Next: CCOCCOC(=O)/C(C#N)=C(\NNc1ccc(Cl)cc1Cl)C(C)C
true (1)

Entry to check: CCOCCOC(=O)c1c(C(C)C)nn(-c2ccc(Cl)cc2Cl)c1N
true (1)

Next up: CCOCCOC(=O)/C(C#N)=C(\NNc1c(Cl)cccc1Cl)C(C)C
false (0)

====

We begin with a simple list: items and their reported inhibition at 50 µg/mL.
- Tested on: Mycosphaerella arachidis
- Experiment Notes: Fungicidal activity against Cercospora arachidicola assessed as inhibition of mycelium growth at 50 mg/L after 72 hrs
- Type: functional
The response must be a number in % with no trailing unit.

Some solved entries appear below for comparison.
For CCOCCOC(=O)/C(C#N)=C(/CC)NNc1cccc(Cl)c1Cl , what is its reported inhibition at 50 µg/mL?
24.2

Record: CCOCCOC(=O)/C(C#N)=C(\NNc1c(Cl)cc(Cl)cc1Cl)C(C)C
18.2

Another molecule to check: CCOCCOC(=O)c1c(C(C)C)nn(-c2ccc(Cl)cc2)c1N
23.5

Another molecule to look at: CCOCCOC(=O)/C(C#N)=C(\NNc1cc(Cl)c(Cl)cc1Cl)C(C)C
18.2

What would you report for CCOCCOC(=O)c1c(SC)nn(-c2ccc(C)cc2C)c1N ?
35.3

Consider next the molecule CCOCCOC(=O)c1c(C(C)C)nn(-c2ccc([N+](=O)[O-])cc2)c1N in the same way.
44.1

What would you report for CCOCCOC(=O)c1c(C(C)C)nn(-c2ccccc2)c1N ?
20.6

Now this one: CCOCCOC(=O)/C(C#N)=C(\NNc1cccc(Cl)c1Cl)C(C)C
36.4

Consider next the molecule CCOCCOC(=O)c1c(C(C)C)nn(-c2ccc(Cl)cc2Cl)c1N in the same way.
44.1

Now consider CCOCCOC(=O)c1c(SC)nn(-c2ccc([N+](=O)[O-])cc2)c1N and answer again.
11.8

More entries:
Please give the measured inhibition at 50 µg/mL for this molecule: CCOCCOC(=O)/C(C#N)=C(/CC)NNc1c(Cl)cccc1Cl
24.4

====

- Tested on: Bel-7402
- Experiment Notes: Antitumor activity against human Bel7402 cells at 1000 uM/L after 72 hrs by MTT assay
- Type: functional
- Conditions: Bel-7402, 72 h
Endpoint Label: inhibition at 1000 µM
Quick note: number first, unit second.

Return reported inhibition at 1000 µM; argument: CCOCCOC(=O)c1c(SC)nn(-c2ccccc2)c1N
49%

Same thing, different compound: CCOCCOC(=O)c1c(C(C)C)nn(-c2ccc([N+](=O)[O-])cc2)c1N
48.6%

And the next one, CCOCCOC(=O)/C(C#N)=C(\NNc1cccc(Cl)c1Cl)C(C)C ?
49.1%

====

Consider the following compounds and their measured inhibition at 1 µM readings.
- System: Bel-7402
- Experiment Notes: Antitumor activity against human Bel7402 cells at 1 uM/L after 72 hrs by MTT assay
- Format: functional
- Conditions: Bel-7402, 72 h
State the result as a value with its unit after it.

Consider the reported inhibition at 1 µM for these compounds:
Item under review: CCOCCOC(=O)/C(C#N)=C(/CC)NNc1ccc(Cl)cc1Cl . Reported inhibition at 1 µM?
0%

Same for CCOCCOC(=O)c1c(C(C)C)nn(-c2ccc([N+](=O)[O-])cc2)c1N
0%

Note, next up: CCOCCOC(=O)/C(C#N)=C(/CC)NNc1c(Cl)cccc1Cl
11.5%

***
// query inhibition at 1 µM value for entry CCOCCOC(=O)/C(C#N)=C(\NNc1c(Cl)cccc1Cl)C(C)C
7.6%

Would you mind doing CCOCCOC(=O)/C(C#N)=C(/CC)NNc1c(Cl)cc(Cl)cc1Cl as well?
0%

Then this compound: CCOCCOC(=O)c1c(SC)nn(-c2ccc(C)cc2C)c1N
0%

Now the compound CCOCCOC(=O)c1c(CC)nn(-c2ccc([N+](=O)[O-])cc2)c1N
0%

Can you check CCOCCOC(=O)/C(C#N)=C(\NNc1c(Cl)cc(Cl)cc1Cl)C(C)C next?
5.2%

Would you kindly repeat that for CCOCCOC(=O)/C(C#N)=C(\NNc1ccc(Cl)cc1Cl)C(C)C ?
5.3%

// same read-out, input: CCOCCOC(=O)c1c(SC)nn(-c2ccccc2)c1N
0%
